- TEST_DESCRIPTION: qHTS RealTime-Glo MT Cell Viability Assay in HEK293 cells - 24 hour (AID 1224886); note: top concentration of the series differs between compounds; nearly all actives have a fitted effect of over 50% in size
- CONDITION_NOTES: RealTime-Glo luminescence; series mostly up to 76.8 µM
Inconclusive results are not listed. Calls of active or inactive are those of the source. Calls come from the whole dose curve; as a rule, active = well fitted cell-killing curve with a large enough effect in the repeat runs; inconclusive = weak or mixed curves, or effect the other way; inactive = flat fitted curve, though single readings scatter.
Please reply with one of these outcomes: active, inactive

* CC(=O)Nc1cccc(N)c1 | inactive

Write down the call the test reported for this molecule. Item: O=C1c2ccccc2C(=O)C1c1ccc2cc(S(=O)(=O)O)cc(S(=O)(=O)O)c2n1
inactive

----------
- TEST_DESCRIPTION: Caspase-3/7 induction in HepG2 cells by small molecules, qHTS cell viability counter screen (AID 1346981); note: nearly all actives have a fitted effect of over 30% in size
- CONDITION_NOTES: CellTiter-Fluor fluorescence, 17 h; series mostly up to 92.4 µM
Records with an inconclusive call do not appear. Activity calls are given as the source filed them. Calls follow the shape of the dose curve; as a rule, active = well fitted cell-killing curve with a large enough effect in the repeat runs; inconclusive = weak or mixed curves, or effect the other way; inactive = flat fitted curve, though single readings scatter.
Please reply with one of these outcomes: active, inactive

• Cc1cc(C)c(C)c(O)c1 = inactive
• C=CC(O)CCCCC (configuration not stated) = inactive
• Cc1c(Cl)cccc1[N+](=O)[O-] = inactive
• CCCCCCCCC(=O)OCC(C)OC(=O)CCCCCCCC (configuration not stated) = inactive
• COC(=O)/C=C/C(C)=C\C=C\C(C)=C\C=C\C=C(C)\C=C\C=C(C)\C=C\C(=O)O = inactive

Write down the call the test reported for this compound. Item: Cc1ccc(NC=O)c(C)c1
inactive

Write down the call the test reported for this compound. Item: CCC(=O)O[C@@H]1C[C@H]2CC[C@]1(C)C2(C)C
inactive

Write down the call the test reported for this compound. Item: CC(O)C(C)O (configuration not stated)
inactive

Write down the call the test reported for this compound. Item: C/C(=C\C(C)CC(C)CC(C)C)C1CC(=O)OC1=O (configuration not stated)
inactive

Write down the call the test reported for this compound. Item: O=C(O)CNc1ccccc1
inactive

Write down the call the test reported for this compound. Item: CC(CCl)OC(C)CCl (configuration not stated)
inactive

Write down the call the test reported for this compound. Item: COc1cc(C)c(Cc2cnc(N)nc2N)cc1OC
inactive

----------
- TESTED_ON: Cytochrome P450 2C9 (Homo sapiens)
- TEST_DESCRIPTION: Cytochrome P450 Family 2 Subfamily C Member 9 (CYP2C9) small molecule antagonists: luciferase reporter qHTS assay (AID 1671198); note: nearly all actives have a fitted effect of over 50% in size; note: potency is the fitted concentration of half-maximal effect
- CONDITION_NOTES: P450-Glo CYP2C9 enzyme assay, luciferin luminescence; series mostly up to 115 µM
Results filed as inconclusive are left out. Activity calls are given as the source filed them. Calls follow the shape of the dose curve; as a rule, active = well fitted inhibition curve with a large enough effect in the repeat runs; inconclusive = weak or mixed curves; inactive = no such curve, though single readings can be large or run the other way.
PROPERTY: Potency

• O=C(Nc1ccccc1)c1cc([N+](=O)[O-])ccc1Cl = 31.7 µM (active)
• Cc1ccc(NC(=O)c2ccc(CN3CCN(C)CC3)cc2)cc1Nc1nccc(-c2cccnc2)n1 = inactive
• C/C=C1\[C@H]2C=C(C)C[C@]1(N)c1ccc(=O)[nH]c1C2 = inactive

----------
- TESTED_ON: Cytochrome P450 3A4 (Homo sapiens) (UniProt P08684)
- Sequence (P08684 whole entry, looked up): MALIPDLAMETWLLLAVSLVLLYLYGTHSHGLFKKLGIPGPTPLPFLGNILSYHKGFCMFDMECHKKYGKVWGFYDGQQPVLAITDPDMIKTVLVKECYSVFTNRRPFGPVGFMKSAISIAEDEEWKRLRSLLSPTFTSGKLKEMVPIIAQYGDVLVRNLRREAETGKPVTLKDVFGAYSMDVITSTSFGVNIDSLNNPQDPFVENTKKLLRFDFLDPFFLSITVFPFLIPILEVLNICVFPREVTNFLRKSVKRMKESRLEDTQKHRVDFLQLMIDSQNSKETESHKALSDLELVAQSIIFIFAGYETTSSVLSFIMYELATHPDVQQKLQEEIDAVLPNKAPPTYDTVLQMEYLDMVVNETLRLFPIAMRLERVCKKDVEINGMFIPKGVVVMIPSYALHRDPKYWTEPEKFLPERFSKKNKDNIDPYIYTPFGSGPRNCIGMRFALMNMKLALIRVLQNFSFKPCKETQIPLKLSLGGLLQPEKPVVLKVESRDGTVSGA
- TEST_DESCRIPTION: Cytochrome P450 Family 3 Subfamily A Member 4 (CYP3A4) small molecule antagonists: luciferase reporter qHTS assay (AID 1671201); note: nearly all actives have a fitted effect of over 50% in size
- CONDITION_NOTES: P450-Glo CYP3A4 enzyme, luciferin luminescence, 1 h; series mostly up to 115 µM
Results filed as inconclusive are left out. The source made the active and inactive calls. Calls follow the shape of the dose curve; as a rule, active = well fitted inhibition curve with a large enough effect in the repeat runs; inconclusive = weak or mixed curves; inactive = no such curve, though single readings can be large or run the other way.
Please reply with one of these outcomes: 1 (yes) = active, 0 (no) = inactive

Worked examples follow.
• CCC1=C(C)CN(C(=O)NCCc2ccc(S(=O)(=O)NC(=O)NC3CCC(C)CC3)cc2)C1=O (configuration not stated) = 0 (no)
• C1=COCCC1 = 0 (no)
• CCCCCCCCS = 0 (no)
• COc1ccc(/C=C/c2cc(OC)cc(=O)o2)cc1 = 0 (no)
• N#CCCCC(C#N)CCC#N (configuration not stated) = 0 (no)
• CC(CCl)OC(C)CCl (configuration not stated) = 0 (no)

Could you now look at the following compound, please?
Write down the call the test reported for this compound. Item: O=c1[nH][nH]c2ccccc12
1 (yes)
